- testedOn: glutathione-S-transferase (GST) tagged LXRbeta LBD (ligand binding domain) (Homo sapiens)
- Construct: purchased Invitrogen pv4658.pps
- Sequence (P55055 222-460 limits assumed): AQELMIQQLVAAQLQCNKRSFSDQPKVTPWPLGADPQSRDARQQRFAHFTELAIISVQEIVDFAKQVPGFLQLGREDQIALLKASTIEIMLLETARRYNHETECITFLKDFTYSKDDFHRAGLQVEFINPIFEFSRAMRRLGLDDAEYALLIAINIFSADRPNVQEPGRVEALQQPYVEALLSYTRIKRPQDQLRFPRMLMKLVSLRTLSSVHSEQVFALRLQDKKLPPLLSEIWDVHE
- testDescription: LanthaScreen TR-FRET Liver X Receptor Coactivator Assay, LXR beta-LBD
- Format: biochemical
- settings: efficacy in relation to reference dual agonist T1317; read-out: LXR beta activity at max dose (%) (Emax)
property: Emax (%)
Dear colleague, please return just the value in %, with no unit written.

- structureSmilesString: "CN(C)C(=O)c1ccc(-c2ccc(N3CCN(C(=O)OC(C)(C)C)CC3)cc2)cc1Cl"
  Emax, %: 82
- structureSmilesString: "CN(C)C(=O)c1ccc(-c2cnc(N3CCN(C(=O)C4(c5ccccc5)CCCC4)CC3)c(C#N)c2)cc1Cl"
  Emax, %: 84

// lookup Emax for CN(C)C(=O)c1ccc(-c2cnc(N3CCN(C(=O)Cc4cn5ccsc5n4)CC3)c(C#N)c2)cc1Cl
104
